# protocol.notes: TD-6450 phase I clinical study (SAD/MAD): pharmacokinetics
# Assay type: in vivo, human
# measurement.parameters: both sexes, human, plasma, oral, 0.5 mg, SAD 0.5 mg; read-out: Cmax Mean ± SD
property: Cmax (nM)
Give the value, in units of nM, as a plain number.

Reported Cmax ( CNC(=O)N1C[C@@H](C)N(c2ccc(C(=O)Nc3ccc(-c4ccc(-c5c[nH]c([C@@H]6CCCN6C(=O)[C@@H](NC(=O)OC)C(C)C)n5)cc4)c(OC(F)(F)F)c3)cn2)C[C@@H]1C [TD-6450] ) = 0.5

###

# protocol.notes: TD-6450 phase I clinical study (SAD/MAD): pharmacokinetics
# Type: in vivo, human
# measurement.parameters: both sexes, human, plasma, oral, 240 mg, SAD 240 mg; read-out: t1/2 Mean ± SD (converted)
# Experimental: Primary and secondary outcomes were pre-defined as follows: Safety and tolerability as a primary outcome, pharmacokinetics as a secondary outcome. Safety and tolerability were evaluated using standard measures, including adverse event (AE) monitoring, clinical laboratory tests (hematology, serum chemistry, coagulation, and urinalysis), vital signs, physical examinations, and 12-lead electrocardiograms (ECGs). […] This study was conducted in two parts, Part A (SAD) and Part B (MAD). […]
property: half-life (h)
Provide the reading as a plain figure in h.

// sample CNC(=O)N1C[C@@H](C)N(c2ccc(C(=O)Nc3ccc(-c4ccc(-c5c[nH]c([C@@H]6CCCN6C(=O)[C@@H](NC(=O)OC)C(C)C)n5)cc4)c(OC(F)(F)F)c3)cn2)C[C@@H]1C [TD-6450] , its half-life was 64.7

###

# protocol.notes: TD-6450 phase I clinical study (SAD/MAD): pharmacokinetics
# Format: in vivo, human
# measurement.parameters: both sexes, human, plasma, oral, 60 mg, MAD 60 mg, day 1; read-out: Cmax Mean ± SD, D1
property: Cmax at 1 day (nM)
Report the value in nM with no unit label.

Summary for this compound, `CNC(=O)N1C[C@@H](C)N(c2ccc(C(=O)Nc3ccc(-c4ccc(-c5c[nH]c([C@@H]6CCCN6C(=O)[C@@H](NC(=O)OC)C(C)C)n5)cc4)c(OC(F)(F)F)c3)cn2)C[C@@H]1C` : Cmax at 1 day is 97.4

###

# protocol.notes: TD-6450 phase I clinical study (SAD/MAD): pharmacokinetics
# Type: in vivo, human
# measurement.parameters: both sexes, human, plasma, oral, 1.5 mg, SAD 1.5 mg; read-out: Cmax Mean ± SD
property: Cmax (nM)
Give a bare numeral; the unit nM is implied.

// sample CNC(=O)N1C[C@@H](C)N(c2ccc(C(=O)Nc3ccc(-c4ccc(-c5c[nH]c([C@@H]6CCCN6C(=O)[C@@H](NC(=O)OC)C(C)C)n5)cc4)c(OC(F)(F)F)c3)cn2)C[C@@H]1C [TD-6450] , its Cmax was 1.5

###

# protocol.notes: TD-6450 phase I clinical study (SAD/MAD): pharmacokinetics
# Type: in vivo, human
# measurement.parameters: female, human, plasma, oral, 60 mg, Female subjects, SAD arm NCT02022306, Dose 60.00, 120 Hours; read-out: Concentration
property: concentration at 120 h (ng/mL)
Express the result in ng/mL but write the number alone.

Lab note: measured concentration at 120 h of `CNC(=O)N1C[C@@H](C)N(c2ccc(C(=O)Nc3ccc(-c4ccc(-c5c[nH]c([C@@H]6CCCN6C(=O)[C@@H](NC(=O)OC)C(C)C)n5)cc4)c(OC(F)(F)F)c3)cn2)C[C@@H]1C` was 12.8

###

# protocol.notes: TD-6450 phase I clinical study (SAD/MAD): pharmacokinetics
# Assay type: in vivo, human
# measurement.parameters: male, human, in vivo, TD-6450 concentration
property: concentration at 3 h (ng/mL)
Expressed in ng/mL, but write only the number.

In plain terms, CNC(=O)N1C[C@@H](C)N(c2ccc(C(=O)Nc3ccc(-c4ccc(-c5c[nH]c([C@@H]6CCCN6C(=O)[C@@H](NC(=O)OC)C(C)C)n5)cc4)c(OC(F)(F)F)c3)cn2)C[C@@H]1C [TD-6450] has a documented concentration at 3 h of 156

###

# System: mature stage V gametocytes (NF54 strain)
# protocol.notes: microbe, parasite or virus in culture
# Type: cell-based, Plasmodium falciparum
# measurement.parameters: stage V gametocytes NF54, 24 h, dose-response analysis; N/A = not active in dose-response analysis; read-out: Stiffening IC50 (retention)
Just a reminder that ties go to Not satisfied: only IC50 strictly below 1000 nM counts as Satisfied.

Worked cases, answers included:
[[record]]
molecule = "CC[n+]1c(/C=C/c2ccc(N3CCCC3)cc2)cccc1/C=C/c1ccc(N2CCCC2)cc1.[I-] [Stilbazium iodide]"
class = "Not satisfied"

[[record]]
molecule = "CCCCCCCCCCCCCC[n+]1ccc(C)cc1 [Myristyl-gamma picolinium chloride]"
class = "Not satisfied"

[[record]]
molecule = "COc1cccc(CC(=O)N2CCC(n3c(C)nc4ccc(F)cc43)CC2)c1"
class = "Not satisfied"


Is the reported IC50 for `CC(=O)[O][Hg][c]1cc(C(C)(C)CC(C)(C)C)ccc1O` strictly below 1000 nM?
Not satisfied

Does the reported IC50 of the following molecule sit strictly below 1000 nM? `COc1ccc(NC(=O)N2CCCCN3[C@H](CN(C)C)[C@H](c4ccc(C#Cc5ccccc5)cc4)[C@@H]3C2)cc1`
Not satisfied

Please state whether IC50 is below 1000 nM for `COc1cccc2c1ccc1nc3cccc(C(=O)N[C@H](C)CN(C)C)c3nc12`
Not satisfied

Say whether its IC50 is strictly beneath 1000 nM. Entry: CCN(CC)Cc1ccc2cc(COC(=O)Nc3ccc(C(=O)NO)cc3)ccc2c1.Cl.O [Givinostat hydrochloride]
Not satisfied

Quick check: does `CC(=O)OC[C@H]1O[C@@H]([S-])[C@H](OC(C)=O)[C@@H](OC(C)=O)[C@@H]1OC(C)=O.CCP(CC)CC.[Au+]` have IC50 under 1000 nM?
Not satisfied

Please let me know if COC(=O)C1=C(C)NC(C)=C(C(=O)OC)C1c1cc([N+](=O)[O-])ccc1OCCCCNCC(O)COc1ccccc1 (stereo not drawn) shows IC50 below 1000 nM.
Not satisfied

Regarding CC(O)C(=O)O.Cc1[nH]c2ccccc2c1CCNCc1ccc(/C=C/C(=O)NO)cc1 [Panobinostat lactate] , kindly confirm whether its IC50 is beneath 1000 nM.
Satisfied

Bench note: check whether O=C([O-])[C@H]([O-])[C@@H]([O-])C(=O)[O-].O=C([O-])[C@H]([O-])[C@@H]([O-])C(=O)[O-].[K+].[K+].[Sb+3].[Sb+3] [Potassium antimonyl tartrate] shows IC50 below 1000 nM
Not satisfied

Identify whether the molecule `CN(C)CCOc1ccc2[nH]c(C(=O)NCC#Cc3ccc(C(=O)NO)cc3)cc2c1` records IC50 below 1000 nM.
Satisfied

Answer whether the molecule `C[CH2][Hg][S]c1ccccc1C(=O)[O-].[Na+]` has IC50 strictly less than 1000 nM
Satisfied

Below 1000 nM on IC50? Entry `CC[C@H]1/C=C/C=C/C[C@@H](C)[C@H](O)[C@@](C)(O)C(=O)[C@@H](C)[C@H](O)[C@@H](C)C(=O)[C@@H](C)[C@H](O)[C@@H](C)/C=C/C(=O)O[C@@H]2[C@H](C)[C@H](CC1)O[C@@]1(O[C@@H](C[C@@H](C)O)[C@@H](C)CC1=O)[C@H]2C`
Not satisfied

###

# protocol.notes: TD-6450 phase I clinical study (SAD/MAD): pharmacokinetics
# Type: in vivo, human
# measurement.parameters: female, human, plasma, oral, 5 mg, Female subjects, SAD arm NCT02022306, Dose 5.00, 1 Hour; read-out: Concentration
property: concentration at 1 h (ng/mL)
Give a bare numeral; the unit ng/mL is implied.

Lab note: measured concentration at 1 h of `CNC(=O)N1C[C@@H](C)N(c2ccc(C(=O)Nc3ccc(-c4ccc(-c5c[nH]c([C@@H]6CCCN6C(=O)[C@@H](NC(=O)OC)C(C)C)n5)cc4)c(OC(F)(F)F)c3)cn2)C[C@@H]1C` was 0.91

###

# Test system: mature stage V gametocytes (NF54 strain)
# protocol.notes: High-throughput screening: killing effect by MitoTracker staining, primary screening at 1.11 µM and dose-response analysis
# Type: cell-based, Plasmodium falciparum
# measurement.parameters: Plasmodium falciparum, NF54, 24 h, stage V gametocytes NF54, 24 h, dose-response analysis; N/A = not active in dose-response analysis; read-out: Killing IC50
property: pIC50
The meaning of pIC50 here: minus log10 of the concentration in molar units.

[[record]]
molecule = "N=C(N)c1ccc(C=C2c3ccccc3-c3ccccc32)cc1"
recorded_value = 5.72

[[record]]
molecule = "CC(C)(C)NCc1ccc(Nc2ccnc3cc(Cl)ccc23)cc1O"
recorded_value = 5.02

[[record]]
molecule = "COc1ccc(-c2nc(N3CCOCC3)c3sc(CN(C)c4ncc(C(=O)NO)cn4)cc3n2)cn1"
recorded_value = 5.48

[[record]]
molecule = "CCCCCCCCN=c1ccn(CCCCCCCCCCn2ccc(=NCCCCCCCC)cc2)cc1"
recorded_value = 5.90

[[record]]
molecule = "COc1cc(N2CCN(C(C)C)CC2)ccc1Nc1nc(Nc2ccc(F)cc2C(N)=O)c2cc[nH]c2n1 [GSK1220512A]"
recorded_value = 4.77

[[record]]
molecule = "COCCn1c2c([n+](Cc3cnccn3)c1C)C(=O)c1ccccc1C2=O [Sepantronium bromide]"
recorded_value = 5.87

[[record]]
molecule = "C[C@H]1Cc2c([nH]c3cc(Cl)c(F)cc23)[C@@]2(N1)C(=O)Nc1ccc(Cl)cc12"
recorded_value = 6.82


Note to self: pIC50 recorded for `CS(=O)(=O)c1ccc(-c2cnc(N)c(-c3ccc(C(F)(F)F)nc3)c2)cc1` was 5.41
